target: T1, human IGF2^1-67 (mature insulin-like growth factor 2) (human, UniProt P01344 25-91, biotinylated (site not stated) where immobilised on the chip (Tables 1-4)); experiment: SPR steady state, biotin-IGF2 on chip, pH 7.4
T1 construct: mature; also called mature IGF2; biotinylated IGF2
T1 sequence (P01344 25-91): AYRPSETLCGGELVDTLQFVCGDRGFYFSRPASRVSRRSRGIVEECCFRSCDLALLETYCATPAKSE
Kindly state pKd for each of the entries shown.
Give bare numbers, as −log10 of the molar value.

Report pKd for each item below.
1. domain 11^AB5 Q1632L (receptor, See m5; HI loop mutant) MKSNEHDDCQVTNPSTGHLFDLSSLSGRAGFTAAYAKGWGVYMSICGENENCPPGVGACFGQTRISVGKANKRLRYVDQVLQLVYKDGSPCPSKSGLSYKSVISFVCRPEAGPTNRPMLISLDKLTCTLFFSWHTPLACEQATECSV
2. domain 11^AB5 G1603K (receptor, See m5) MKSNEHDDCQVTNPSTGHLFDLSSLSGRAGFTAAYAKGWGVYMSICGENENCPPGVGACFGQTRISVGKANKRLRYVDQVLQLVYKDGSPCPSKSKLSYKSVISFVCRPEAGPTNRPMLISLDKQTCTLFFSWHTPLACEQATECSV
3. domain 11^AB5 T1633A (receptor, See m5; HI loop mutant) MKSNEHDDCQVTNPSTGHLFDLSSLSGRAGFTAAYAKGWGVYMSICGENENCPPGVGACFGQTRISVGKANKRLRYVDQVLQLVYKDGSPCPSKSGLSYKSVISFVCRPEAGPTNRPMLISLDKQACTLFFSWHTPLACEQATECSV
4. domain 11^AB5 S1602A (receptor, See m5) MKSNEHDDCQVTNPSTGHLFDLSSLSGRAGFTAAYAKGWGVYMSICGENENCPPGVGACFGQTRISVGKANKRLRYVDQVLQLVYKDGSPCPSKAGLSYKSVISFVCRPEAGPTNRPMLISLDKQTCTLFFSWHTPLACEQATECSV

8.03
8.34
7.27
7.70

Cited source for all entries: patent US20180237497A1
